Each entry below lists one item and its recorded TGI value.
- Tested on: XF 498 CNS
- experimentDescription: NCI tumour cell line growth inhibition, 48 h

molecule | TGI
COc1cc(CNc2nc3ccc(C(F)(F)F)cc3nc2-c2ccccc2)cc(OC)c1OC | > 100 µM
COc1ccccc1NC(=O)/C(=C/c1ccccc1)C(C)=O | 89.5 µM
CCOC(=O)C1(Cc2ccc3ccccc3c2)CCCCC(=O)N1 (configuration not stated) | > 100 µM
O=C1CNS(=O)(=O)N1 | > 100 µM
COC(=O)C1C(=O)N(CCc2c[nH]c3ccccc23)C[C@@H]2CCC(=O)C[C@H]12 (some centres not stated) | > 100 µM
Cc1cccc(C)c1N1C(=O)C(=O)C(c2nc3ccccc3s2)/C(=N/NC(=O)NN)C1=O (configuration not stated) | > 100 µM
CSc1nc2c(ncn2C2OC(CO)C(O)C(O)C2O)c(=O)[nH]1 (configuration not stated) | > 100 µM
CC(C)(C)OC(=O)NC1CCCC1=O (configuration not stated) | > 100 µM
Cc1ccc2oc(=O)c(-c3ccccc3)nc2c1 | > 100 µM
N#C/C(=C1\SC(N=Nc2ccc(Cl)cc2)C(=O)N1c1ccccc1)c1nc2ccccc2[nH]1 (configuration not stated) | 84.8 µM
CC(C)[O-].CC(C)[O-].O=c1cccccc1[O-].O=c1cccccc1[O-].[Ti+4] | 97.3 µM
CCCCCCCCCCCCCCCCCCOCC(COCCOCC[N+]1(CCCCCC(=O)[O-])CCCC1)Oc1ncccn1 (configuration not stated) | 9.46 µM
